Test system: A549-GM130-SQSTM1
Experiment: phenotypically active (imaging signature differs from DMSO and reproducible) at any of 0.3-9 uM (binary (1 = active, 0 = inactive)); higher = active
Conditions: treatment time: 24 h
METRIC: phenotypically active

Example results:
>  <COMPOUND>
CN1CCN(c2ccc(OC(F)(F)F)c(Nc3ncc4c(n3)-c3c(c(C(N)=O)nn3CCO)CC4)c2)CC1

>  <RESULT>
1 (active)

$$$$
>  <COMPOUND>
COc1ccc2[nH]c(C(=O)c3ccccc3)cc2c1

>  <RESULT>
1 (active)

$$$$
>  <COMPOUND>
Cc1ccnn1-c1ccc(C(=O)N2CCN(S(=O)(=O)c3ccc(Cl)c(C(F)(F)F)c3)CC2)cc1

>  <RESULT>
0 (inactive)

$$$$
>  <COMPOUND>
CN1CCN2c3ncccc3Cc3ccccc3C2C1 (stereo unspecified)

>  <RESULT>
0 (inactive)

$$$$
>  <COMPOUND>
C=C1C[C@]23C[C@@]1(O)CC[C@H]2[C@@]12C=C[C@H](O)[C@](C)(C(=O)O1)[C@H]2[C@@H]3C(=O)O

>  <RESULT>
0 (inactive)

$$$$

Report phenotypically active for Cc1cc(O)cc2c1C(=O)Oc1cc3c(c(O)c1O2)C(=O)OC3
0 (inactive)

* * *

Form field: lowest phenotypically active concentration (one value per entry).
Tested on: WPMY1-GM130-SQSTM1
Test: lowest phenotypically active concentration; higher = less potent
Details: treatment time: 24 h
Structures can show the parent of a compound that is named as a salt.
Please respond with the number in µM and leave the unit unwritten.

>  <COMPOUND>
OC[C@H]1O[C@@H](n2cnc3c(NCc4ccco4)ncnc32)[C@H](O)[C@@H]1O [Kinetin riboside]

>  <UNIT SPEC>
µM

>  <NUMBER>
1

$$$$
>  <COMPOUND>
CC(=O)c1c(C)c2cnc(Nc3ccc(N4CCNCC4)cn3)nc2n(C2CCCC2)c1=O

>  <UNIT SPEC>
µM

>  <NUMBER>
9

$$$$

Write down lowest phenotypically active concentration measured for item Cc1ccc(-n2sc3ccccc3c2=O)cc1
9

Give the reported lowest phenotypically active concentration for this compound. COc1cc([C@@H]2c3cc4c(cc3[C@@H](O[C@@H]3O[C@@H]5CO[C@@H](C)O[C@H]5[C@H](O)[C@H]3O)[C@H]3COC(=O)[C@H]23)OCO4)cc(OC)c1O [etoposide]
1

Please give measured lowest phenotypically active concentration of the following entry: O=C(O)[C@H]1O[C@@H](Oc2cc3oc(-c4ccccc4)cc(=O)c3c(O)c2O)[C@H](O)[C@@H](O)[C@@H]1O
3

Name the recorded lowest phenotypically active concentration of the compound listed here: Nc1cc(C(F)(F)F)c(-c2cc(N3CCOCC3)nc(N3CCOCC3)n2)cn1
1

Return the recorded lowest phenotypically active concentration value; entry: CN1CCC(CN2c3ccccc3Sc3ccccc32)C1 (stereo not drawn)
3

Return reported lowest phenotypically active concentration. Input compound: COc1ccc(S(=O)(=O)N(C(C)=O)c2ccccc2/C=C/c2cc[n+]([O-])cc2)cc1
3

Note lowest phenotypically active concentration for the compound shown: COc1cc2c(cc1OC)-c1c/c(=N/c3c(C)cc(C)cc3C)n(C)c(=O)n1CC2 [Trequinsin hydrochloride]
9

// fetch lowest phenotypically active concentration given entry COc1cc(N2CCC(N)CC2)ccc1Nc1ncc(Cl)c(-c2c[nH]c3ccccc23)n1
1

Given the compound CCCCCCCN(CC)CCCC(O)c1ccc(NS(C)(=O)=O)cc1 (stereo not drawn) [ibutilide] , write its reported lowest phenotypically active concentration.
3

Supply reported lowest phenotypically active concentration belonging to this compound: COc1ccc(-c2ccc3cc(C(=O)O)ccc3c2)cc1C12CC3CC(CC(C3)C1)C2
1
